Below, each entry is listed alongside its reported Z-AUC.
- assay.explanation: qHTS drug screen for cell cycle checkpoint inhibitors in PARPi-resistant BRCA-mutant ovarian cancer cell lines. (AID 1963452)
- experimental.conditions: PEO1/OlaR viability, CellTiter-Glo luminescence, 96 h; measured here: PEO1 parental Z-AUC; stronger effect = lower value
Reply briefly: the number, and no unit.

// worked examples, Z-AUC included
>>> reported_measurement("Cc1cc(O)c2c(c1)C(=O)c1cc(O)cc(O)c1C2=O")
0.799
>>> reported_measurement("O=c1cc(N2CCOCC2)oc2c(-c3ccccc3)cccc12")
0.743
>>> reported_measurement("Nc1nc(OCc2ccccc2)c2[nH]cnc2n1")
0.393

Lab note: next compound to report on.
Z-AUC for Nc1ccc(S(N)(=O)=O)cc1 is 0.495

* * *

- System: ATS189
- assay.explanation: qHTS profiling for inhibitors of Plasmodium falciparum proliferation (AID 504749); note: nearly all actives have a fitted effect of over 60% in size
- experimental.conditions: P. falciparum in erythrocytes, SYBR Green DNA, 72 h; series mostly up to 28.7 µM
Results filed as inconclusive are left out. The source made the active and inactive calls. The call rests on the fitted dose curve; in most records, active means well fitted inhibition curve with a large enough effect; inconclusive means small, poorly fitted or top-dose-only effect; inactive means flat fitted curve, though single readings scatter.
Pick one: Y (active), N (inactive)

>>> category_label("CN1C(C(=O)Nc2ccccn2)=C(O)c2sccc2S1(=O)=O")
"N"
>>> category_label("CCC1=C(C)CN(C(=O)NCCc2ccc(S(=O)(=O)NC(=O)NC3CCC(C)CC3)cc2)C1=O (stereo not drawn)")
"N"

Exercise: Field: outcome | Entry: O=C(CS(=O)Cc1ccco1)NCC=CCOc1cc(CN2CCCCC2)ccn1 (stereo not drawn)
Solution: N

Exercise: Field: outcome | Entry: CCCc1cc(=O)[nH]c(=S)[nH]1
Solution: N

Exercise: Field: outcome | Entry: COc1ccc2cc([C@H](C)C(=O)O)ccc2c1
Solution: N

Exercise: Field: outcome | Entry: CN(C)c1ccc2nc3ccc(=[N+](C)C)cc-3sc2c1
Solution: Y

Exercise: Field: outcome | Entry: O=C(NCCO[N+](=O)[O-])c1cccnc1
Solution: N

Exercise: Field: outcome | Entry: CCCCc1ccc2nc(NC(=O)OC)[nH]c2c1
Solution: N

Exercise: Field: outcome | Entry: Cc1ncc([N+](=O)[O-])n1CC(C)O (stereo not drawn)
Solution: N

Exercise: Field: outcome | Entry: CCC[C@@H]1C[C@@H](C(=O)N[C@@H]([C@H]2O[C@H](SC)[C@H](O)[C@@H](O)[C@H]2O)[C@@H](C)O)N(C)C1
Solution: N

Exercise: Field: outcome | Entry: COC1=C(OC)C(=O)C(CCCCCCCCCCO)=C(C)C1=O
Solution: N

Exercise: Field: outcome | Entry: CCOc1cc(CC(=O)N[C@@H](CC(C)C)c2ccccc2N2CCCCC2)ccc1C(=O)O
Solution: N

Exercise: Field: outcome | Entry: Cc1cc(=O)c2c(O)c3c(O)cc(=O)c4c3c3c(cc(O)c1c23)C(C)(C)C=4O
Solution: Y

Exercise: Field: outcome | Entry: CNC[C@H](O)c1ccc(O)c(O)c1
Solution: N

* * *

- assay.explanation: qHTS of pediatric cancer cell lines to identify multiple opportunities for drug repurposing: Primary screen for LAN-5 cells (AID 1347100)
- experimental.conditions: LAN-5 neuroblastoma viability, CellTiter-Glo luminescence, 48 h; series mostly up to 46 µM
Records with an inconclusive call do not appear. Activity calls are given as the source filed them. Calls come from the whole dose curve; as a rule, active = well fitted cell-killing curve with a large enough effect; inconclusive = small, poorly fitted or top-dose-only effect; inactive = no such curve, though single readings can be large or run the other way.
Pick one: active, inactive

For orientation, consider the following solved cases.
>>> category_label("CCOc1cc(CC(=O)N[C@@H](CC(C)C)c2ccccc2N2CCCCC2)ccc1C(=O)O")
"inactive"
>>> category_label("O=C(OC1C[C@H]2CC[C@@H](C1)[N+]21CCCC1)C(O)(c1ccccc1)c1ccccc1 (stereo partly specified)")
"inactive"
>>> category_label("COc1cc2c(N3CCN(C(=O)Nc4ccc(OC(C)C)cc4)CC3)ncnc2cc1OCCCN1CCCCC1")
"active"
>>> category_label("CCOC(=O)C1=C(O)C(=O)N(Cc2ccccc2)C1")
"inactive"
>>> category_label("O=P(O)(O)C(O)(Cn1ccnc1)P(=O)(O)O")
"inactive"

Please look at the following compound next.
Exercise: Field: outcome | Entry: CN1CCC(=C2c3ccccc3CCc3sccc32)CC1
Solution: inactive
